# SYSTEM: UniProtKB Q7ZJM1
# Sequence (Q7ZJM1 whole entry): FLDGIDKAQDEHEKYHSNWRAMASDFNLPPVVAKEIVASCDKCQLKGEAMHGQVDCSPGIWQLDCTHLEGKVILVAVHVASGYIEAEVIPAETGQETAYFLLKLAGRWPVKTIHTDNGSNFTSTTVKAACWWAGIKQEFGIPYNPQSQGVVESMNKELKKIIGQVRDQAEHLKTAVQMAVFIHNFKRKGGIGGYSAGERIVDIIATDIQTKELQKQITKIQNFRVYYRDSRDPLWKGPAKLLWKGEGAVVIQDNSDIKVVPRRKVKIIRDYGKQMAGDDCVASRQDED
# TEST DESCRIPTION: Inhibition of wild type HIV1 subtype B NL4-3 6xHis-tagged integrase expressed in Escherichia coli BL21 (DE3) assessed as inhibition of 3'-processing and strand-transfer reactions using DNA as substrate preincubated with enzyme for 1 hr followed by addition of recombinant 6xHis-tagged LEDGF/p75 expressed in Escherichia coli BL21 (DE3), DNA donor substrate and DNA acceptor substrate and further …
ASSAY ENDPOINT: pIC50
Please keep in mind that pIC50 is minus log10 of the molar concentration; only the number is needed.

// pIC50 lookup, molecule = CCOC(=O)c1cc(-c2cn(Cc3ccc(F)cc3)cc2-c2ccccc2)n[nH]1 , result: 4.12

###

# SYSTEM: Human immunodeficiency virus type 1 reverse transcriptase (Human immunodeficiency virus 1, UniProt Q72547)
# TEST DESCRIPTION: Inhibition of RNase H activity of recombinant His-tagged HIV-1 group M subtype B reverse transcriptase p66/p51 expressed in Escherichia coli M15 using 18-nucleotide 3'-fluorescein-labeled RNA/5'-dabcyl-labeled DNA hybrid as substrate incubated for 1 hr
# Parameters: species or system HIV-1 M:B
IC50 strictly less than 6 µM = met. Otherwise not met.

Could you please tell me whether IC50 recorded for O=C(O)c1cc(-c2cn(Cc3ccc(F)cc3)cc2-c2ccc3ccccc3c2)n[nH]1 is less than 6 µM?
not met

Could you please tell me whether IC50 recorded for O=C(O)c1cc(-c2cn(Cc3cccc4ccccc34)cc2-c2ccccc2)n[nH]1 is less than 6 µM?
not met

Could you please tell me whether IC50 recorded for Cc1cc(C(=O)O)n[nH]1 is less than 6 µM?
not met

Could you please tell me whether IC50 recorded for CCOC(=O)c1cc(-c2cn(Cc3cccc4ccccc34)cc2-c2ccc(OCC(=O)Nc3ccccc3)cc2)n[nH]1 is less than 6 µM?
not met

Could you please tell me whether IC50 recorded for O=C(O)c1cc(-c2cn(CCCCc3ccccc3)cc2-c2ccccc2)n[nH]1 is less than 6 µM?
not met

Could you please tell me whether IC50 recorded for CCOC(=O)c1cc(-c2cn(Cc3ccc(F)cc3)cc2-c2ccc(OCc3ccccc3)cc2)n[nH]1 is less than 6 µM?
met

Could you please tell me whether IC50 recorded for CCOC(=O)c1cc(-c2cn(Cc3ccc(F)cc3)cc2-c2ccc(OCCCCCc3ccccc3)cc2)n[nH]1 is less than 6 µM?
not met

Could you please tell me whether IC50 recorded for O=C(O)c1cc(-c2cn(Cc3ccc(F)cc3)cc2-c2ccc(OCCCCCc3ccccc3)cc2)n[nH]1 is less than 6 µM?
not met

Could you please tell me whether IC50 recorded for CCOC(=O)c1cc(-c2cn(CCCCc3ccccc3)cc2-c2ccccc2)n[nH]1 is less than 6 µM?
not met

Could you please tell me whether IC50 recorded for CCOC(=O)c1cc(-c2cc[nH]c2)n[nH]1 is less than 6 µM?
not met

Could you please tell me whether IC50 recorded for O=C(O)c1cc(-c2cn(Cc3ccc(F)cc3)cc2-c2ccc(OCc3ccccc3)cc2)n[nH]1 is less than 6 µM?
met

Could you please tell me whether IC50 recorded for O=C(O)c1cc(-c2cn(Cc3ccc(F)cc3)cc2-c2ccc(OCc3cccc4ccccc34)cc2)n[nH]1 is less than 6 µM?
met

Could you please tell me whether IC50 recorded for CCOC(=O)c1cc(-c2cn(Cc3ccc(F)cc3)cc2-c2ccc(OCCCCc3ccccc3)cc2)n[nH]1 is less than 6 µM?
not met

Could you please tell me whether IC50 recorded for CCOC(=O)c1cc(-c2ccccc2)[nH]n1 is less than 6 µM?
not met

Could you please tell me whether IC50 recorded for CCOC(=O)c1cc(-c2ccccc2-c2ccccc2)n[nH]1 is less than 6 µM?
not met

Could you please tell me whether IC50 recorded for CCOC(=O)c1cc(-c2c[nH]cc2-c2ccccc2)n[nH]1 is less than 6 µM?
not met

Could you please tell me whether IC50 recorded for Cn1cc(-c2ccccc2)c(-c2cc(C(=O)O)[nH]n2)c1 is less than 6 µM?
not met

Could you please tell me whether IC50 recorded for O=C(O)c1cc(-c2cn(Cc3cccc4ccccc34)cc2-c2ccc(OCc3cccc4ccccc34)cc2)n[nH]1 is less than 6 µM?
met

Could you please tell me whether IC50 recorded for CCOC(=O)c1cc(-c2cn(Cc3ccc(F)cc3)cc2-c2ccc(OCc3cccc4ccccc34)cc2)n[nH]1 is less than 6 µM?
met

Could you please tell me whether IC50 recorded for O=C(O)c1cc(-c2ccccc2)n[nH]1 is less than 6 µM?
not met

###

# System: HIV-1 M:B
# TEST DESCRIPTION: Selectivity index, ratio of IC50 for recombinat HIV-1 group M subtype B His-tagged reverse transcriptase p66 Y501A mutant expressed in Escherichia coli M15 to IC50 for RNase H activity of recombinant His-tagged HIV-1 group M subtype B reverse transcriptase p66/p51 expressed in Escherichia coli M15 …
ASSAY ENDPOINT: Ratio IC50

// Ratio IC50 lookup, compound = CCOC(=O)c1cc(-c2cn(Cc3ccc(F)cc3)cc2-c2ccc(OCCCCc3ccccc3)cc2)n[nH]1 , result: > 5

// Ratio IC50 lookup, compound = CCOC(=O)/C(O)=C/C(=O)/C=C/c1cccn1Cc1ccccc1Cl , result: > 5

// Ratio IC50 lookup, compound = CCOC(=O)c1cc(-c2cn(Cc3ccc(F)cc3)cc2-c2ccc(OCc3ccccc3)cc2)n[nH]1 , result: > 5

// Ratio IC50 lookup, compound = CCOC(=O)c1cc(-c2cn(Cc3ccc(F)cc3)cc2-c2ccc3ccccc3c2)n[nH]1 , result: > 5

// Ratio IC50 lookup, compound = CCOC(=O)c1cc(-c2cn(Cc3ccc(F)cc3)cc2-c2ccccc2)n[nH]1 , result: > 5

###

# TEST DESCRIPTION: Stability of compound in 90% human serum at 5 mM and 37 degree C measured after 3 hrs by ESI-RP-HPLC analysis
# Format: ADME, cell-free
# EXPERIMENTAL SETUP: 5000 µM
ASSAY ENDPOINT: Stability

# SMILES DATA, READOUT VALUE
rows = [
    ("O=C(O)c1cc(-c2cn(Cc3ccc(F)cc3)cc2-c2ccccc2)n[nH]1", "Stable"),
    ("CCOC(=O)/C(O)=C/C(=O)c1cn(Cc2ccc(F)cc2)cc1-c1ccccc1", "Unstable"),
    ("CCOC(=O)c1cc(-c2cn(Cc3ccc(F)cc3)cc2-c2ccccc2)n[nH]1", "Stable"),
    ("O=C(O)/C(O)=C/C(=O)c1cn(Cc2ccc(F)cc2)cc1-c1ccccc1", "Unstable"),
]

###

# Tested on: Human immunodeficiency virus 1
# TEST DESCRIPTION: Selectivity index, ratio of IC50 for wild type HIV1 subtype B NL4-3 6xHis-tagged integrase expressed in Escherichia coli BL21 (DE3) using DNA as substrate preincubated with enzyme for 1 hr followed by addition of recombinant 6xHis-tagged LEDGF/p75 expressed in Escherichia coli BL21 (DE3), DNA donor …
For each of the compounds below, state its Ratio IC50.

// Ratio IC50 lookup, compound = CCOC(=O)c1cc(-c2cn(Cc3ccc(F)cc3)cc2-c2ccc3ccccc3c2)n[nH]1 , result: > 10.6

// Ratio IC50 lookup, compound = CCOC(=O)c1cc(-c2cn(Cc3ccc(F)cc3)cc2-c2ccc(OCCCCc3ccccc3)cc2)n[nH]1 , result: > 5.6

// Ratio IC50 lookup, compound = CCOC(=O)c1cc(-c2cn(Cc3ccc(F)cc3)cc2-c2ccccc2)n[nH]1 , result: 5

// Ratio IC50 lookup, compound = CCOC(=O)c1cc(-c2cn(Cc3ccc(F)cc3)cc2-c2ccc(OCc3ccccc3)cc2)n[nH]1 , result: > 18.5

###

# SYSTEM: UniProtKB Q72547
# TEST DESCRIPTION: Inhibition of RNase H activity of recombinant His-tagged HIV-1 group M subtype B reverse transcriptase p66/p51 expressed in Escherichia coli M15 using 18-nucleotide 3'-fluorescein-labeled RNA/5'-dabcyl-labeled DNA hybrid as substrate incubated for 1 hr
# Parameters: species or system HIV-1 M:B
ASSAY ENDPOINT: pIC50
Please keep in mind that pIC50 is minus log10 of the molar concentration; only the number is needed.

// pIC50 lookup, compound = CCOC(=O)c1cc(-c2cn(Cc3cccc4ccccc34)cc2-c2ccc(OCCCCc3ccccc3)cc2)n[nH]1 , result: 5.07

// pIC50 lookup, compound = CCOC(=O)c1cc(-c2cn(Cc3cccc4ccccc34)cc2-c2ccccc2)n[nH]1 , result: 5.03

// pIC50 lookup, compound = O=C(COc1ccc(-c2cn(Cc3cccc4ccccc34)cc2-c2cc(C(=O)O)[nH]n2)cc1)Nc1ccccc1 , result: 5.24

// pIC50 lookup, compound = O=C(COc1ccc(-c2cn(Cc3ccc(F)cc3)cc2-c2cc(C(=O)O)[nH]n2)cc1)Nc1ccccc1 , result: 4.64

// pIC50 lookup, compound = CCOC(=O)c1cc(-c2cn(Cc3ccc(F)cc3)cc2-c2ccc(OCC(=O)Nc3ccccc3)cc2)n[nH]1 , result: 5.17
